# credit: ChEMBL document CHEMBL1147882

- System: Plasmodium falciparum
- Protocol summary: Antimalarial activity against chloroquine-resistant Plasmodium falciparum Bre1 by hypoxanthine uptake
- Format: functional, organism-based
# key: entry, value: IC50
Your answer is read as nM, so omit the unit and give the number.

{"Molecule": "COc1ccc2nc3cc(Cl)ccc3c(NCCCCCCNC(=O)CCCNC(=O)CN)c2c1", "Unit label": "nM", "IC50": 620}

Now examine the next entry.
Param readout = IC50; param system = Plasmodium falciparum; param query = COc1ccc2nc3cc(Cl)ccc3c(NCCCCCCN)c2c1 ; response: value
170

* * *

- System: Plasmodium falciparum
- Protocol summary: Antimalarial activity against chloroquine-resistant Plasmodium falciparum Bre1 by hypoxanthine uptake
- Assay type: functional, organism-based
Readout type: pIC50
Please treat pIC50 as minus the base-10 logarithm of the molar concentration.

Before answering, review these 3 worked examples.
{"Molecule": "N=C(N)NCCCC(N)C(=O)NCC(=O)NCCCCCCCC(=O)Nc1c2ccccc2nc2ccccc12 (stereo unspecified)", "Assayed system": "Plasmodium falciparum", "Readout type": "pIC50", "Measured result": 4.54}
{"Molecule": "COc1ccc2nc3cc(Cl)ccc3c(NCCCCCCNC(=O)CCCNC(=O)CNC(=O)C(N)CCCNC(=N)N)c2c1 (stereo unspecified)", "Assayed system": "Plasmodium falciparum", "Readout type": "pIC50", "Measured result": 6.30}
{"Molecule": "COc1ccc2nc3cc(Cl)ccc3c(NCCCCCCNC(=O)CCCN)c2c1", "Assayed system": "Plasmodium falciparum", "Readout type": "pIC50", "Measured result": 6.74}

Which pIC50 is listed for N=C(N)NCCCC(N)C(=O)NCC(=O)NCCCCCCNC(=O)c1c2ccccc2nc2ccccc12 (stereo unspecified) ?
4.32

Follow-up entry: COc1ccc2nc3cc(Cl)ccc3c(NCCCCCCNC(=O)CCN)c2c1
5.90

Follow-up entry: COc1ccc2nc3cc(Cl)ccc3c(NCCCCCCNC(=O)CCNC(=O)CCNC(=O)C(N)CCCNC(=N)N)c2c1 (stereo unspecified)
6.07
